# Test system: Escherichia coli ATCC 25922
# Protocol text: Standard EPI assay: clarithromycin MIC with EPI
# Type: cell-based
# Measurement parameters: clarithromycin as antibiotic; E. coli ATCC 25922; EPI at 6.25 (μg)
Where a name gives a salt, the structure may show the parent alone.
Recorded endpoint: Enhanced Activity in E. coli (fold enhancement of antibiotic activity / EPI concentration) (×/6.25)
Give the value in ×/6.25 but do not write ×/6.25 after it.

[
  {
    "Molecule": "NCCC[C@H](N)CNC(=O)c1nc2cc(-c3ccc(F)cc3)cc(C(F)(F)F)c2[nH]1 [Example 3, Dihydrochloride]",
    "Endpoint result": 8
  }
]

Q: Any idea what its Enhanced Activity in E. coli (fold enhancement of antibiotic activity / EPI concentration) is? The molecule is NCCC[C@@H](N)CNC(=O)c1nc2cc(-c3ccc(F)cc3)ccc2[nH]1 [Example 18, Dihydrochloride]
A: 2

Q: What Enhanced Activity in E. coli (fold enhancement of antibiotic activity / EPI concentration) value was documented for this molecule, CC(C)C(N)CC[C@H](N)CNC(=O)c1nc2cc(-c3ccc(F)cc3)ccc2[nH]1 (stereo partly shown) [Example 16, Dihydrochloride] ?
A: 4

Q: Field request: Enhanced Activity in E. coli (fold enhancement of antibiotic activity / EPI concentration) | item: NC[C@H]1CN[C@H](CNC(=O)c2nc3cc(-c4ccc(F)cc4)ccc3[nH]2)C1
A: 2

Q: I have this molecule here, NCCC[C@H](N)CNC(=O)c1nc2cc(-c3ccc(F)cc3)c(-c3ccc(F)cc3)cc2[nH]1 [Example 1, Dihydrochloride] , and I need its recorded Enhanced Activity in E. coli (fold enhancement of antibiotic activity / EPI concentration).
A: 512
